# Test system: RXF 393
# method: NCI tumour cell line growth inhibition, 48 h
The source made the active and inactive calls. Rule as the data show it: active = GI50 up to about 1.1 µM and inactive = higher.
Possible outcomes: TRUE for active, FALSE for inactive

compound	className
c1ccc2c(NCCCCCCCCNc3c4ccccc4nc4ccccc34)c3ccccc3nc2c1	TRUE
O=C(O)C1=NN(c2ccc(S(=O)(=O)O)cc2)C2(C1)C(Cl)C(=O)N2c1nc2ccccc2s1 (stereo not given)	FALSE
NCCSCCC(=O)O	FALSE
O=C(/C=C/c1cccc([N+](=O)[O-])c1)c1ccc([N+](=O)[O-])cc1	FALSE
CC(C)(C)OC(=O)C1CCC/C1=N/Nc1ccc([N+](=O)[O-])cc1[N+](=O)[O-] (stereo not given)	FALSE
Nc1ccc(S(=O)(=O)NCCS(=O)(=O)O)cc1	FALSE
COc1ccc2c(c1)CN1C(=N2)CSC1c1cc([N+](=O)[O-])ccc1Cl (stereo not given)	FALSE
C[C@]12CC[C@@H]3c4ccc(O)cc4CC[C@H]3[C@@H]1C/C(=C\c1ccncc1)[C@@H]2O	FALSE
CCOC(C)OC1CC(n2cc(C)c(=O)[nH]c2=O)OC1CO (stereo not given)	FALSE
C1CCN(c2nsc(N3CCCCC3)n2)CC1	FALSE
